These measurements were taken from PubChem BioAssay (EPA / NIEHS).

# tested.target: Cytochrome P450 3A4 (Homo sapiens) (UniProt P08684)
# Sequence (P08684 whole entry, looked up): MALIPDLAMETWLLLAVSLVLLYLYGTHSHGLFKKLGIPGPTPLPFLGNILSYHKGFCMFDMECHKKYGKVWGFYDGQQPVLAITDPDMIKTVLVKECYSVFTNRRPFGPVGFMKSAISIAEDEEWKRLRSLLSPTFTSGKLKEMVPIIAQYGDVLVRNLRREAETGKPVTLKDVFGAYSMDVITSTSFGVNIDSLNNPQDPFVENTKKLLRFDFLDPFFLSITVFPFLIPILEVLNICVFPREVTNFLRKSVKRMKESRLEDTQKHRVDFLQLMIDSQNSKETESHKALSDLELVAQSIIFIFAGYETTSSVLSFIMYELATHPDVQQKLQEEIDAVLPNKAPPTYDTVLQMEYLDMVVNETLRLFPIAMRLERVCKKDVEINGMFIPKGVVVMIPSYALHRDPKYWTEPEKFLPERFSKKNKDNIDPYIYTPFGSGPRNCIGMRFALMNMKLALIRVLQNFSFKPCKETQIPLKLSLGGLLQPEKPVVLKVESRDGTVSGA
# test: NVS_ADME_hCYP3A4: NovaScreen (NVS) CYP450-related Enzyme Activity (ADME) Assay for human CYP3A4 (AID 2283110)
Inconclusive results are not listed. Active and inactive are the calls of the source. How the source made its calls: active means hit-call score of the fitted dose curve at least 0.9, where 1 is the maximum; inconclusive means response in the unintended direction; inactive means score below 0.9.
Thanks in advance; please answer with one of these: 1 (active), -1 (inactive)

Input: How did this test come out for COc1ccc2c(c1)c(CC(=O)O)c(C)n2C(=O)c1ccc(Cl)cc1 ?
Output: 1

Input: How did this test come out for NCCO ?
Output: -1

Input: How did this test come out for COc1ccc(S(=O)(=O)N2C(=O)[C@@](c3ccccc3OC)(N3C[C@H](O)C[C@H]3C(=O)N(C)C)c3cc(Cl)ccc32)c(OC)c1 ?
Output: 1

Input: How did this test come out for CCc1c(C(=O)NN2CCCCC2)nn(-c2ccc(Cl)cc2Cl)c1-c1ccc(Br)cc1 ?
Output: -1

* * *

# test: CCTE_Simmons_MITO_inhib_resp_rate: CCTE's HepG2 Seahorse XF Respirometric Screening Assay at Inhibited Respiratory State [full ETC block], Simmons Lab (AID 2284006)
# condition.context: actives raise or lower the signal
# Procedure: CCTE_Simmons_MITO is cell-based, respirometric assay using HepG2 cells and a Seahorse XF Analyzer to measure oxygen consumption rates over four temporal phases spanning a total of 72 minutes: pre-injection (pre-treatment), basal (following test compound injection), maximal (following FCCP uncoupler injection), and inhibited (following rotenone/antimycin A injection)CCTE_Simmons_MITO_inhib_resp_rate is one of 4 assay components calculated from the CCTE_Simmons_MITO assay. […]
Calls of active or inactive are those of the source. The calls were made as follows: active = hit-call score of the fitted dose curve at least 0.9, where 1 is the maximum; inactive = score below 0.9.
Thanks in advance; please answer with one of these: Y for active, N for inactive

Example cases with answers are listed next.
CCCCC(CC)COC(=O)CC(C(=O)OCC(CC)CCCC)S(=O)(=O)O (stereo not given)	N
Cc1c(C(=O)O)c(O)cc2c1C(=O)c1c(O)c([C@@H]3O[C@H](CO)[C@@H](O)[C@H](O)[C@H]3O)c(O)c(O)c1C2=O	Y

Input: How did this test come out for Cc1oc(-c2ccccc2)nc1CCOc1cccc2c1ccn2CCC(=O)O ?
Output: N

Input: How did this test come out for COc1ccc2c(c1)c(CC(=O)O)c(C)n2C(=O)c1ccc(Cl)cc1 ?
Output: N

Input: How did this test come out for CC(C)(C)c1cc(O)c(C(C)(C)C)cc1O ?
Output: N

* * *

# Read-out: solute carrier (SLC22A1), SLC22A1 (gene 6580)
# test: LTEA_HepaRG_SLC22A1: Life Technologies and Expression Analysis (LTEA) Assay for solute carrier (SLC22A1) using HepaRG (AID 2283524)
# condition.context: mRNA level, 48 h; actives raise or lower the signal
Active and inactive are the calls of the source. How the source made its calls: active means hit-call score of the fitted dose curve at least 0.9, where 1 is the maximum; inactive means score below 0.9.
Thanks in advance; please answer with one of these: t for active, f for inactive

Input: How did this test come out for O=C(N[C@@H](Cc1ccccc1)[C@@H](O)C(=O)N1C[C@@H](O)[C@@H](O)C1)c1cc2cc(Cl)ccc2[nH]1 ?
Output: f

* * *

# tested.target: Estrogen receptor (Homo sapiens) (UniProt P03372)
# Sequence (P03372 whole entry, looked up): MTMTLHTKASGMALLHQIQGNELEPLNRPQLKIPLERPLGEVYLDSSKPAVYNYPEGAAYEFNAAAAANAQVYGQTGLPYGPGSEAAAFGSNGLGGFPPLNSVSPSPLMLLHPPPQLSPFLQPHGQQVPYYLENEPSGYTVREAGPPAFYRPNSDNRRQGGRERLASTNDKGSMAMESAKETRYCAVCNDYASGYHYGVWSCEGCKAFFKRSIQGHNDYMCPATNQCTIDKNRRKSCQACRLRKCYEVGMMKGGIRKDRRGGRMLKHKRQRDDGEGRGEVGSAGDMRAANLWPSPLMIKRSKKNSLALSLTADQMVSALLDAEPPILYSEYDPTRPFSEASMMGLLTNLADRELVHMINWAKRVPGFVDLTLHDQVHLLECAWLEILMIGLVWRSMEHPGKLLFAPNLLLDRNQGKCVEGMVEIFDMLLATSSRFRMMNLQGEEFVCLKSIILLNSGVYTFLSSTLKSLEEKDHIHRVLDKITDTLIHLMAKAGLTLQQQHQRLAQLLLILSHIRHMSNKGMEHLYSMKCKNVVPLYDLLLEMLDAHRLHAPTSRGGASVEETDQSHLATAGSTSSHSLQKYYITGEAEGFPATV
# test: CCTE_Deisenroth_AIME_384WELL_LUC_Active: CCTE's 384-well Estrogen Receptor Transactivation Assay with AIME metabolic competence (ERTA luciferase; metabolism positive), Deisenroth Lab (AID 2284030)
Records with an inconclusive call do not appear. Calls of active or inactive are those of the source. The calls were made as follows: active = hit-call score of the fitted dose curve at least 0.9, where 1 is the maximum; inconclusive = response in the unintended direction; inactive = score below 0.9.
Thanks in advance; please answer with one of these: active, inactive

Cc1ccc(C(C)C)c(O)c1	inactive
CN1CCCC1=O	inactive
Cc1cccc(C)c1O	inactive
CCNc1cccc(C)c1	inactive
CC1(C)CC(N=C=O)CC(C)(CN=C=O)C1 (centres undefined)	inactive

Input: How did this test come out for Cc1ccc(C)c(O)c1C ?
Output: inactive

Input: How did this test come out for C[Si]1(C)O[Si](C)(C)O[Si](C)(C)O[Si](C)(C)O1 ?
Output: inactive

Input: How did this test come out for CCCCCCC(=O)OCC ?
Output: inactive

Input: How did this test come out for O=c1c(O)c(-c2ccc(O)c(O)c2)oc2cc(O)cc(O)c12 ?
Output: active

Input: How did this test come out for CCOc1ccc2c(c1)C(C)=CC(C)(C)N2 ?
Output: active

Input: How did this test come out for Cc1cccc([N+](=O)[O-])c1C ?
Output: inactive

Input: How did this test come out for Cc1ccc2ncccc2c1 ?
Output: inactive

Input: How did this test come out for CNC(=O)[C@H]1O[C@@H](n2cnc3c(NCc4cc(Cl)ccc4OCc4cc(C)no4)ncnc32)[C@H](O)[C@@H]1N ?
Output: inactive

Input: How did this test come out for COc1ccc(C)cc1N ?
Output: inactive

Input: How did this test come out for Clc1cc(Cl)c(Cl)cc1Cl ?
Output: inactive

Input: How did this test come out for O=c1[nH]cc(F)c(=O)[nH]1 ?
Output: inactive

Input: How did this test come out for CNCc1cc(F)ccc1Oc1ccc(Cl)c(Cl)c1 ?
Output: inactive

Input: How did this test come out for CCCCCCCCCCCCCCCCCC(=O)O ?
Output: inactive

Input: How did this test come out for C[C@]12C=CC(=O)C=C1CC[C@@H]1[C@@H]2C(=O)C[C@@]2(C)[C@H]1CC[C@]2(O)C(=O)CO ?
Output: inactive
